- Tested on: SGC-7901
- protocol: Growth inhibition of human SGC7901 cells at 40 ug/ml after 72 hrs by MTT assay
- Type: functional
- conditions used: SGC-7901, 72 h, read-out: GI
property label: inhibition of growth at 40 µg/mL (%)
Answers are plain numbers, in %.

Solved entries:
molecule	inhibition of growth at 40 µg/mL [%]
CCN(CC)C(=O)c1cc(Cl)cc(C)c1NC(=O)C1CC(c2ccc(Cl)cc2)=NO1 (stereo not given)	76.3
COc1cc(C2=NOC(C(=O)Nc3ccccc3C(=O)NC(C)C)C2)cc(OC)c1OC (stereo not given)	0
CNC(=O)c1ccccc1NC(=O)C1CC(c2cc(OC)c(OC)c(OC)c2)=NO1 (stereo not given)	12
O=c1[nH]cc(F)c(=O)[nH]1	80.8

Dear colleague, could you send me inhibition of growth at 40 µg/mL for each of the items below? Thanks.
1. CCCNC(=O)c1cc(Cl)cc(C)c1NC(=O)C1CC(c2ccc(Cl)cc2)=NO1 (stereo not given)
2. CC(C)NC(=O)c1ccccc1NC(=O)C1CC(c2ccc(Cl)cc2)=NO1 (stereo not given)
3. CCN(CC)C(=O)c1cc(Cl)cc(C)c1NC(=O)C1CC(c2ccc(F)cc2)=NO1 (stereo not given)
4. CNC(=O)c1ccccc1NC(=O)C1CC(c2ccc(Cl)cc2)=NO1 (stereo not given)
5. CCN(CC)C(=O)c1cc(Cl)cc(C)c1NC(=O)C1CC(c2cc(OC)c(OC)c(OC)c2)=NO1 (stereo not given)

*A*
14.7
13.6
15.8
7.8
28.3

*Q* // lookup inhibition of growth at 40 µg/mL for CNC(=O)c1cc(Cl)cc(C)c1NC(=O)C1CC(c2ccc(Cl)cc2)=NO1 (stereo not given)
*A* 24.6

* * *

- Tested on: BGC-823
- protocol: Cytotoxicity against human BGC823 cells after 72 hrs by MTT assay
- Format: functional, cell-based
- conditions used: BGC-823, 72 h
property label: pIC50
Give bare numbers, as −log10 of the molar value.

Solved entries:
molecule	pIC50
O=c1[nH]cc(F)c(=O)[nH]1 [FLUOROURACIL]	5.35
COc1cc(C2=NOC(C(=O)Nc3c(C)cc(Cl)cc3C(=O)NC3CCCCC3)C2)cc(OC)c1OC (configuration not stated)	4.63
Cc1cc(Cl)cc2c(=O)oc(C3CC(c4ccc(Cl)cc4)=NO3)nc12 (configuration not stated)	4.26
CCN(CC)C(=O)c1cc(Cl)cc(C)c1NC(=O)C1CC(c2ccc(Cl)cc2)=NO1 (configuration not stated)	4.44

Dear colleague, could you send me pIC50 for each of the items below? Thanks.
1. CNC(=O)c1cc(Cl)cc(C)c1NC(=O)C1CC(c2cc(OC)c(OC)c(OC)c2)=NO1 (configuration not stated)
2. Cc1cc(Cl)cc2c(=O)oc(C3CC(c4ccc(F)cc4)=NO3)nc12 (configuration not stated)

*A*
1. 4.27
2. 4.46

* * *

- Test system: SGC-7901
- protocol: Growth inhibition of human SGC7901 cells at 40 ug/ml after 72 hrs by MTT assay
- Format: functional
- conditions used: SGC-7901, 72 h, read-out: GI
Decide by inhibition of growth at 40 µg/mL: equal to or exceeding 30% means 1, less means 0.

Past entries and their recorded results:
compound	category
COc1cc(C2=NOC(C(=O)Nc3c(C)cc(Cl)cc3C(=O)NC3CCCCC3)C2)cc(OC)c1OC (centres undefined)	1
COc1cc(C2=NOC(C(=O)Nc3c(C)cc(Cl)cc3C(=O)NC(C)C)C2)cc(OC)c1OC (centres undefined)	0
Cc1cc(Cl)cc2c(=O)oc(C3CC(c4ccc(F)cc4)=NO3)nc12 (centres undefined)	1
COc1cc(C2=NOC(c3nc4c(C)cc(Cl)cc4c(=O)o3)C2)cc(OC)c1OC (centres undefined)	0
Cc1cc(Cl)cc(C(=O)Nc2ccccc2)c1NC(=O)C1CC(c2ccc(F)cc2)=NO1 (centres undefined)	0
CNC(=O)c1ccccc1NC(=O)C1CC(c2ccc(F)cc2)=NO1 (centres undefined)	0
Cc1cc(Cl)cc(C(=O)NC(C)C)c1NC(=O)C1CC(c2ccc(Cl)cc2)=NO1 (centres undefined)	0

API: the following record is the query input.
*Q* Answer whether inhibition of growth at 40 µg/mL of CNC(=O)c1cc(Cl)cc(C)c1NC(=O)C1CC(c2cc(OC)c(OC)c(OC)c2)=NO1 (centres undefined) is greater than or equal to 30%.
*A* 0
